Listed molecules paired with reported mass density
# condition_summary: 293.15 K; 101.33 kPa; Liquid
± gives the expanded uncertainty stated by the source.
reported_endpoint: mass density

>>> reported_value("CCCCO")
"809.644 ± 0.47 kg/m3"
>>> reported_value("CCCCOCCOCCO")
"952.196 ± 1.1 kg/m3"
>>> reported_value("COCCOCCO")
"1019.81 ± 1.1 kg/m3"
>>> reported_value("CCOCCOCCO")
"987.876 ± 1.1 kg/m3"

====

# condition_summary: 298.15 K; 101.33 kPa; Liquid; sound analyzer
reported_endpoint: speed of sound (m/s)

>>> reported_value("COCCOCCO")
1415.2
>>> reported_value("CCCCOCCOCCO")
1357
>>> reported_value("CCOCCOCCO")
1374.3
>>> reported_value("CCCCO")
1239.2

====

Reported speed of sound values for a set of molecules
# condition_summary: 303.15 K; 101.33 kPa; Liquid; sound analyzer
Numbers after ± are expanded uncertainties.
reported_endpoint: speed of sound

>>> reported_value("CCOCCOCCO")
"1356.6 ± 2 m/s"
>>> reported_value("CCCCO")
"1222.7 ± 0.54 m/s"
>>> reported_value("CCCCOCCOCCO")
"1340 ± 2 m/s"
>>> reported_value("COCCOCCO")
"1397.9 ± 2 m/s"

====

# condition_summary: 303.15 K; 101.33 kPa; Liquid
# key: entry, value: mass density
reported_endpoint: mass density (kg/m3)

>>> reported_value("CCCCO")
801.995
>>> reported_value("COCCOCCO")
1010.91
>>> reported_value("CCCCOCCOCCO")
943.743
>>> reported_value("CCOCCOCCO")
978.788

====

Measured mass density, listed per entry for reference.
# condition_summary: 298.15 K; 101.33 kPa; Liquid
reported_endpoint: mass density (kg/m3)

>>> reported_value("COCCOCCO")
1015.41
>>> reported_value("CCCCOCCOCCO")
948.103
>>> reported_value("CCCCO")
805.842
>>> reported_value("CCOCCOCCO")
983.336

====

Overview of recorded speed of sound for various molecules
# condition_summary: 293.15 K; 101.33 kPa; Liquid; sound analyzer
reported_endpoint: speed of sound (m/s)

>>> reported_value("COCCOCCO [2-(2-methoxyethoxy)ethanol]")
1432.4
>>> reported_value("CCCCOCCOCCO [3,6-dioxa-1-decanol]")
1374.3
>>> reported_value("CCCCO [butan-1-ol]")
1256.7
>>> reported_value("CCOCCOCCO [3,6-dioxa-1-octanol]")
1392.3
